- Study System: NEP enzyme (Homo sapiens)
- Construct: purchased R&D Systems, Minneapolis, Minn; 1182-ZN
- Assay Procedure: NEP enzyme inhibition assay (fluorogenic peptide substrate)
- Format: biochemical
- Cond: values given as lower bounds; * = prodrugs, may not exhibit NEP activity in an in vitro assay; read-out: NEP pIC50 (converted)
# reported IC50; entries follow

Example entries begin here.
{"columns": ["Compound", "IC50"],
 "data": [
  ["CCCc1cc(C(=O)N[C@H](Cc2ccccc2)[C@@H](O)C(=O)O)nn1Cc1ccc(-c2ccccc2C(=O)O)c(F)c1F [Example 9-7]", "≤ 100 nM"],
  ["CCCc1cc(C(=O)N[C@@H](CC(=O)O)Cc2ccccc2C(F)(F)F)nn1Cc1ccc(-c2ccccc2S(=O)(=O)NC(C)=O)cc1 [Example 6-25]", "≤ 1000 nM"],
  ["CCCCc1cc(C(=O)N[C@@H](CS)CC(C)C)nn1Cc1ccc(-c2ccccc2C(=O)O)cc1F [Example 9-3]", "≤ 100 nM"],
  ["CCCc1cc(C(=O)N[C@@H](CC(=O)O)Cc2ccccc2)nn1Cc1ccc(-c2ccccc2-c2nnn[nH]2)cc1 [Example 2]", "≤ 10000 nM"],
  ["CCCc1cc(C(=O)N[C@@H](CC(=O)O)Cc2ccccc2)nn1Cc1ccc(-c2ccccc2S(=O)(=O)NC(C)=O)nc1 [Example 14-15]", "≤ 1000 nM"],
  ["CCOc1cc(C(=O)N[C@@H](CS)Cc2ccccc2)nn1Cc1ccc(-c2ccccc2-c2nnn[nH]2)cc1F [Example 3-1]", "≤ 100 nM"],
  ["CCCc1cc(C(=O)N[C@@H](CC(=O)OC)Cc2ccccc2C)nn1Cc1ccc(-c2ccccc2-c2nnn[nH]2)cc1 [Example 3-29]", "≤ 10000 nM"],
  ["CCOc1cc(C(=O)N[C@@H](CS)Cc2ccccc2)nn1Cc1ccc(-c2ccccc2C(=O)O)cc1F [Example 9-2]", "≤ 100 nM"],
  ["CCCc1cc(C(=O)N[C@H](Cc2ccccc2)[C@@H](O)C(=O)O)nn1Cc1ccc(-c2ccccc2S(=O)(=O)NC(=O)OC)cc1 [Example 5]", "≤ 100 nM"],
  ["CCCc1cc(C(=O)N[C@H](Cc2ccccc2)[C@@H](O)C(=O)O)nn1Cc1ccc(-c2ccccc2S(=O)(=O)NC(=O)CC)cc1 [Example 7-10]", "≤ 100 nM"]
]}

Exam item: Which IC50 reading was recorded for the compound CCCc1cc(C(=O)N[C@@H](CC(=O)O)Cc2ccc(F)cc2)nn1Cc1ccc(-c2ccccc2-c2nnn[nH]2)nc1 [Example 14-13] ?
Marked response: ≤ 100 nM

Exam item: Reported IC50 for CCCc1cc(C(=O)N[C@H](Cc2ccccc2)CN(O)C=O)nn1Cc1ccc(-c2ccccc2-c2nnn[nH]2)cc1 [Example 3-14] : what is it?
Marked response: ≤ 100 nM

Exam item: Form field: reported IC50 of CCOc1cc(C(=O)N[C@H](Cc2ccccc2)[C@@H](O)C(=O)O)nn1Cc1ccc(-c2ccccc2-c2nnn[nH]2)cc1F [Example 3-8]
Marked response: ≤ 1000 nM

Exam item: # IC50 lookup, item CCCc1cc(C(=O)N[C@@H](CC(=O)O)Cc2ccccc2)nn1Cc1ccc(-c2ccccc2-c2nnn[nH]2)nc1 [Example 14-6]
Marked response: ≤ 100 nM

* * *

- Study System: NEP enzyme (Homo sapiens, UniProt P08473)
- Construct: purchased R&D Systems, Minneapolis, Minn; 1182-ZN
- Sequence (P08473 52-750 limits assumed): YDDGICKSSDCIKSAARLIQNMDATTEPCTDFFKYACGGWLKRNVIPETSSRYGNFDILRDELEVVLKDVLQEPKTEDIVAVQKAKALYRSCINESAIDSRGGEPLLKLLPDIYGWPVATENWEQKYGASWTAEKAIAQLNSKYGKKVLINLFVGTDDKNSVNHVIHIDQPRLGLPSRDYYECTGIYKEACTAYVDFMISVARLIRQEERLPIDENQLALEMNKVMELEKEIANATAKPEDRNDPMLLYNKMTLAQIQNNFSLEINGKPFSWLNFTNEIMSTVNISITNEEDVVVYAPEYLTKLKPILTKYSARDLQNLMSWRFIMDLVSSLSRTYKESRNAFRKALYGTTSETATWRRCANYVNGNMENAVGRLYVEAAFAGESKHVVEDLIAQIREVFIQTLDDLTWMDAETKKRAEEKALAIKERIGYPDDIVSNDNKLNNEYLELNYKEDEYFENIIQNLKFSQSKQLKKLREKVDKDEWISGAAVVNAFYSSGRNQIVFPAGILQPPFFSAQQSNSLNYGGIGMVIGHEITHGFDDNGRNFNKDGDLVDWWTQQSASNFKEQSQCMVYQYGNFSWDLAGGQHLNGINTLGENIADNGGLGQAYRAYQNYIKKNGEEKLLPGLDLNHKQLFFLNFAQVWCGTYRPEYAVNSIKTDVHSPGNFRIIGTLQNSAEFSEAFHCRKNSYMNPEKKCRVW
- Assay Procedure: NEP enzyme inhibition assay (fluorogenic peptide substrate)
- Format: biochemical
- Cond: values given as lower bounds; * = prodrugs, may not exhibit NEP activity in an in vitro assay; read-out: NEP pIC50 (converted)
- Experimental: B. In Vitro Assays for the Quantitation of Inhibitor Potencies (IC50) at Human and Rat NEP, and Human ACE The inhibitory activities of compounds at human and rat NEP and human ACE were determined using in vitro assays as described below. […] Plates were read on a fluorometer with excitation and emission wavelengths set to 320 nm and 405 nm, respectively. […]
Measured IC50 values are reported for all entries that follow.

// solved cases for IC50 follow
{"columns": ["Structure Smiles", "IC50"],
 "data": [
  ["CCCc1cc(C(=O)N[C@@H](CS)Cc2ccccc2)nn1Cc1ccc(-c2ccccc2S(=O)(=O)NC(C)=O)nc1", "≤ 100 nM"],
  ["CCCc1cc(C(=O)N[C@H](Cc2ccccc2)[C@@H](O)C(=O)O)nn1Cc1ccc(-c2ccccc2S(=O)(=O)NC(=O)c2ccccc2F)cc1", "≤ 1000 nM"],
  ["CCCc1cc(C(=O)N[C@H](Cc2ccccc2)[C@@H](O)C(=O)O)nn1Cc1cnc(-c2ccccc2-c2nnn[nH]2)cn1", "≤ 100 nM"],
  ["CCCc1cc(C(=O)N[C@@H](CC(=O)NO)Cc2ccccc2)nn1Cc1ccc(-c2ccccc2-c2nnn[nH]2)cc1", "≤ 100 nM"],
  ["CCCc1cc(C(=O)N[C@H](Cc2ccccc2)[C@@H](O)C(=O)O)nn1Cc1ccc(-c2ccccc2S(=O)(=O)NC(=O)NCC)cc1", "≤ 1000 nM"]
]}

With those in mind, consider the next compound.
Exam item: Consider the compound "CCOc1cc(C(=O)N[C@@H](CC(=O)O)Cc2ccccc2)nn1Cc1ccc(-c2ccccc2S(=O)(=O)NC(C)=O)cc1F" and give its measured IC50.
Marked response: ≤ 10000 nM
